Source listed as ChEMBL document CHEMBL1629493.

Consider the following compounds and their measured IC50 readings.
test system: HeLa; experiment: Cytostatic activity against human HeLa 229 cells after 48 hrs by colorimetric microculture assay; type: functional, cell-based

* CC(=O)O[C@H]1[C@@H](OC(C)=O)[C@H](n2cnc3c(Cl)nc(Cl)nc32)O[C@@H]1[C@H](O)CO | 36.3 µM

[Q] // output IC50; input `CC(=O)OC[C@@H](OC(C)=O)[C@H]1O[C@@H](n2cnc3c(-c4ccccc4)ncnc32)[C@H](OC(C)=O)[C@@H]1OC(C)=O` ; system HeLa
[A] > 100 µM

[Q] // output IC50; input `CNc1nc(Cl)nc2c1ncn2[C@@H]1O[C@H]([C@H](O)CO)[C@@H](O)[C@H]1O` ; system HeLa
[A] > 100 µM

[Q] // output IC50; input `OC[C@@H](O)[C@H]1O[C@@H](n2cnc3c(Cl)ncnc32)[C@H](O)[C@@H]1O` ; system HeLa
[A] > 100 µM

[Q] // output IC50; input `CC(=O)OC[C@@H](OC(C)=O)[C@H]1O[C@@H](n2cnc3c(Cl)ncnc32)[C@H](OC(C)=O)[C@@H]1OC(C)=O` ; system HeLa
[A] > 100 µM

[Q] // output IC50; input `OC[C@@H](O)[C@H]1O[C@@H](n2cnc3c(Cl)nc(Cl)nc32)[C@H](O)[C@@H]1O` ; system HeLa
[A] 47.1 µM

[Q] // output IC50; input `CC(=O)OC[C@@H](OC(C)=O)[C@H]1O[C@@H](n2cnc3c(N)nc(Cl)nc32)[C@H](OC(C)=O)[C@@H]1OC(C)=O` ; system HeLa
[A] > 100 µM
